Assign binding signal to each entry below.
# ASSAYED_TARGET: OsSMF1 (Oryza sativa, UniProt Q6ZLB0 1-436)
# Sequence: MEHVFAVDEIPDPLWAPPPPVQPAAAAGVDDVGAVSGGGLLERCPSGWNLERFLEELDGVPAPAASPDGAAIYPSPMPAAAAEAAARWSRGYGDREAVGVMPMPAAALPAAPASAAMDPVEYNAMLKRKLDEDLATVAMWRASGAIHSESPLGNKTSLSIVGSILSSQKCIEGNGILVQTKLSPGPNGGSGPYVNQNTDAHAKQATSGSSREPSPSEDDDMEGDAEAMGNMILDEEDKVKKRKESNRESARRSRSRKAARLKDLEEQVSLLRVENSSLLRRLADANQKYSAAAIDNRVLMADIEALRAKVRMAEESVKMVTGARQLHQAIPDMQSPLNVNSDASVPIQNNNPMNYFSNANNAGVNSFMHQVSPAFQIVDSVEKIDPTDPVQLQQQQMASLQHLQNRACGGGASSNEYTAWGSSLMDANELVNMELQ
# METHOD_NOTES: protein-binding microarray (RPBM); PBS, 2% BSA, 51.3 ng/ul salmon testes DNA, 50 uM zinc acetate, 200 nM TF, 25 C, 1 h; high values mean tight binding
# APPLIED_CONDITIONS: protein: recombinant; tags: N-terminal polyhistidine and DsRed monomer fusion (pET32a); chain copies: 2; label: CyDye5-dUTP incorporated in the synthesized complementary strand; 3' TTTTT single-stranded linker to array surface; dsDNA, one strand shown
The full ranking holds about 39,000 sequences; the median of “fluorescence intensity (a.u.)” is about 4,300, and the highest 2% start at about 39,000. The sample holds the highest values, similar sequences and a random draw of the others, so the mix is not that of the screen.

Request: binding signal, test system OsSMF1 (Oryza sativa, UniProt Q6ZLB0 1-436), entry "TGATTAAAGTATTCTTATTTCTCTTTTGAGCAATATCTAACGGAGTCACCTAGTGCAG"
21900 fluorescence intensity (a.u.)

Value wanted: binding signal (OsSMF1 (Oryza sativa, UniProt Q6ZLB0 1-436)) of entry "AGTGAAGTCACAAGGAAGTGACGAGGATGAGGACGAGGAGCGGAGTCACCTAGTGCAG"
28700 fluorescence intensity (a.u.)

GET /values?readout=binding signal&system=OsSMF1 (Oryza sativa, UniProt Q6ZLB0 1-436)&item= "TCATTTCTAATGTAAATTATCTTTTGCGTAAGTAATTTCTCGGAGTCACCTAGTGCAG"
3230 fluorescence intensity (a.u.)

Missing value: binding signal, OsSMF1 (Oryza sativa, UniProt Q6ZLB0 1-436), entry "ATAATATAAAACGGATGGATCACATGCTATGAACCTATGACGGAGTCACCTAGTGCAG" . Fill in?
51200 fluorescence intensity (a.u.)

What binding signal appears in the records for this sequence with OsSMF1 (Oryza sativa, UniProt Q6ZLB0 1-436)? "AACCAACGGTCGCTGTTACGCCACGTCACCTCACCGACGCCGGAGTCACCTAGTGCAG"
39200 fluorescence intensity (a.u.)

Give me binding signal for each of these sequences, listed below.
1. CATGGATAGGATAATCGTAACAATTATCTAGACAGTGATGCGGAGTCACCTAGTGCAG
2. CGCTGTGTATATATGTGCAGGTCCATCCATGAGAGGTTGACGGAGTCACCTAGTGCAG
3. TAATCCAGTACTACTTGCTGTGACAGTGTGATGTGCTTGTCGGAGTCACCTAGTGCAG
4. CTCCTCCGCCGCCGCCGCTCCCAGCCTGCACGCCGGCCGCCGGAGTCACCTAGTGCAG

3140 fluorescence intensity (a.u.)
34900 fluorescence intensity (a.u.)
3540 fluorescence intensity (a.u.)
26200 fluorescence intensity (a.u.)

Each recorded value in this set is attributed to paper PMC7819943.
